Property Label: melting point

{"columns": ["Compound", "Obs Value"],
 "data": [
  ["CCOC(=O)C12Cc3ccc(C#N)cc3C(CN(Cc3ccccc3)C1)C2=O (stereo not shown)", "158 to 160 °C"]
]}

Request: Look up and report measured melting point for this entry: CCOC(=O)C12Cc3ccccc3C(CN(Cc3ccccc3)C1)C2=O (stereo not shown)
Response: 117 to 119 °C

Request: Look up and report measured melting point for this entry: CCOC(=O)C12Cc3cc(OC)ccc3C(CN(Cc3ccccc3)C1)C2=O (stereo not shown)
Response: 84 to 85 °C

Request: Look up and report measured melting point for this entry: CCOC(=O)C12Cc3ccccc3C(CN(C(=O)Nc3ccccc3)C1)C2=O (stereo not shown)
Response: 199 to 203 °C

This collection of values is drawn from patent US20080312268A1.
